src = PubChem BioAssay

experiment: inhibitors of hydroxyurea-induced Chk1 phosphorylation, primary screen, imaging, HeLa, phospho-Chk1 antibody, percent positive cells (AID 1186); settings: hydroxyurea-induced phospho-Chk1 immunofluorescence imaging, higher = more signal
Entries and their measured z-score follow.
reported_metric: z-score

INSERT INTO assay_data (query_smiles, reported_metric, endpoint_value) VALUES
  ('C=CC[C@@]1(C(=O)NCCCOC)N=C(c2ccc(OCCCO)cc2)O[C@@H]1c1ccccc1CN=[N+]=[N-]', 'z-score', -0.551),
  ('CCCC=C(CCC)[C@@H](NC(=O)c1ccc(C(=O)OC)cc1)c1ccc(C(=O)OC)cc1', 'z-score', 0.151),
  ('Cc1ccc(S[C@]2(C(=O)NCCN3CCOCC3)CC(=O)N(C(C)C)[C@@H]2c2ccc(CO)cc2I)cc1', 'z-score', -0.395);

---

test: mitochondrial membrane potential change in A549 cells, profiling panel, cell-based, JC-1 fluorescence, basal, 24 h, 100 nL (AID 1138); details: higher = more signal;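 further: A549 lung adenocarcinoma cells under basal conditions with no added stimulus; test concentration not given here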
z-score for assorted compounds
reported_metric: z-score

INSERT INTO assay_data (compound, endpoint_value) VALUES
  ('COC(=O)[C@@]1(Cc2ccc(F)cc2)[C@H]2c3cc(C(=O)N(C)C)n(Cc4ccsc4Br)c3C[C@H]2CN1C(=O)c1ccccc1', -0.51),
  ('CN(C)C(=O)[C@]1(CCS(=O)(=O)c2ccccc2)N=C(c2ccc(OCCCO)cc2)O[C@@H]1c1ccccc1CN=[N+]=[N-]', -0.381),
  ('C=CCN1C(=O)[C@]2(O[C@H](CCO)[C@@H]([Si](C)(C)c3ccc(OC)cc3)[C@@H]2C)c2cc(N3C(=O)c4ccccc4Oc4ccccc43)ccc21', -1.36),
  ('C=C[C@@H](CO)NS(=O)(=O)c1ccc(Br)cc1', -0.297),
  ('COCCOC(=O)N1C(=O)[C@@]2(c3cc(C#CCNC(N)=O)ccc31)[C@H](C(=O)N1CCN(c3ncccn3)CC1)[C@H]1C(=O)O[C@H](c3ccccc3)[C@H](c3ccccc3)N1[C@@H]2c1ccc(O)cc1', 0.284),
  ('Cc1ccc(S[C@]2(C(=O)NCc3ccccc3)CC(=O)N(Cc3ccccc3C(F)(F)F)[C@@H]2c2ccc(CO)cc2I)cc1', 1.28),
  ('CC1CC/C=C\[C@H]2OC34C=CCN(C(C)C)C(=O)[C@H]3N(C(C)CO)C(=O)[C@@H]4C2C(=O)O1 (some centres undefined)', 0.501),
  ('COC(=O)C1(CC(C)C)C=C2C(=C(C)C(=O)C2C)CN1 (centres undefined)', 1.05),
  ('CN1C(=O)C2C=CC(C(O)c3ccc(I)cc3)N(N(c3ccccc3)c3ccccc3)C2C1=O (centres undefined)', 1.74),
  ('CS(=O)(=O)CCOC(=O)C1=CC(CCCO)=CC(C2CC2)N(Cc2sc3ccccc3c2Cl)C=C1C(=O)OCCS(C)(=O)=O (centres undefined)', 0.995),
  ('COc1ccc([Si](C)(C)[C@@H]2[C@@H](CC(=O)N(CCO)Cc3ccccc3)O[C@]3(C(=O)N(Cc4cccc(I)c4)c4ccccc43)[C@H]2C)cc1', -0.781),
  ('C[C@]1(C(=O)NC2CC2)c2ccccc2C(=O)N(Cc2cc(F)cc(C(F)(F)F)c2)[C@H]1c1ccc(CO)cc1', -0.057),
  ('COCCCNC(=O)[C@@]1(Cc2ccccc2I)c2ccccc2C(=O)N(C2CCCCC2)[C@H]1c1ccc(CO)cc1', 0.438),
  ('CCCCN1CC=CC23O[C@@H]4C=CCCOC(=O)C4[C@H]2C(=O)N(CCO)[C@@H]3C1=O (some centres undefined)', -0.9),
  ('O=C(CS)NCCCCCCNC(=O)[C@H]1C[C@H]2C(=O)NCC(=O)N2[C@H]1c1cccc(OCCO)c1', -0.698),
  ('C=CC[C@H](O)c1ccc(O)c(F)c1', 0.414),
  ('COc1ccc(CCNC(=O)[C@@]2(c3ccc([N+](=O)[O-])cc3)CC(=O)N(C3CCCCC3)[C@@H]2c2ccc(CO)cc2I)cc1', 3.1),
  ('COc1ccc(CCNC(=O)[C@@H]2c3ccccc3C(=O)N(Cc3cc(F)cc(C(F)(F)F)c3)[C@H]2c2ccc(CO)cc2)cc1', 3.34),
  ('C=C[C@H](C)[C@@H](OC(=O)Nc1ccc(SC)cc1)c1ccc(OCCO)cc1', -1.8),
  ('CCCCC=C[C@@H](NC(=O)C(C)(C)C)c1ccccc1', -2.82),
  ('CC(C)N1C(=O)[C@@]2(Cc3ccccc31)c1ccccc1C(=O)N(Cc1ccccc1C(F)(F)F)[C@H]2c1ccc(CO)cc1', -0.602),
  ('C=CCNC(=O)[C@@H]1[C@H]2C(=O)O[C@H](c3ccccc3)[C@H](c3ccccc3)N2[C@H](c2ccc(OCCO)cc2)[C@@]12C(=O)Nc1ccc(C#CC3=CCCCC3)cc12', -1.56),
  ('Cc1cccc([C@H]2C[C@H]3C(Br)=C[C@@]2(CO)C(=O)[C@]32CO2)c1', -0.843),
  ('O=C1O[C@H](c2ccccc2)[C@H](c2ccccc2)N2[C@H]1[C@@H](C(=O)N1CCCCCCC1)[C@]1(C(=O)Nc3ccc(C#CCCO)cc31)[C@H]2c1ccc(O)cc1', 0.889);

---

biological target: Torsin-1A-interacting protein 2 (Homo sapiens) (UniProt Q8NFQ8); assay: LULL1 binders on small-molecule microarray, primary screen, cell lysate, human LULL1 lysate, 635/667 nm fluorescence (AID 1092); conditions: hLULL1 lysate binding, 635 nm fluorescence, higher = more signal;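 further: probe is lysate of COS7 cells overexpressing human LULL1; score merges per-feature 667 nm fluorescence with signal-to-noise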
Sequence (Q8NFQ8 whole entry, looked up): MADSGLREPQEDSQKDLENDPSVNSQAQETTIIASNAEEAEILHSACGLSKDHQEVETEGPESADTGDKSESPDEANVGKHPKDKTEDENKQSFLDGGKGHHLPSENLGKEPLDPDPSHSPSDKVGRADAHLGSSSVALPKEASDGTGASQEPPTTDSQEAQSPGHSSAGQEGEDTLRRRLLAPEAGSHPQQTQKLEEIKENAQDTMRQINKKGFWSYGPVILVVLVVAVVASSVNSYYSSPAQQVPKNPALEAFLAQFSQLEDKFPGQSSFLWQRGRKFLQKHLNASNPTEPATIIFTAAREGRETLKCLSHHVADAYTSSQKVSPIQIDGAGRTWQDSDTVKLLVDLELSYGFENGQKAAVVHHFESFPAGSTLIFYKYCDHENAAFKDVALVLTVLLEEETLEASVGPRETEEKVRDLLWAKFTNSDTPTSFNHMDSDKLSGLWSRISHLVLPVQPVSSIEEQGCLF
Listing of entries alongside the reported composite z-score.
reported_metric: composite z-score

INSERT INTO assay_data (molecule, reported_metric, endpoint_value) VALUES
  ('CC1CC/C=C\[C@H]2OC34C=CCN(CCN5CCOCC5)C(=O)[C@H]3N(C(CO)C(C)C)C(=O)[C@@H]4C2C(=O)O1 (stereo not given in full)', 'composite z-score', 3.2),
  ('COc1ccc([Si](C)(C)[C@H]2[C@H](CC(=O)N3CCC[C@H]3CO)O[C@@]3(C(=O)N(Cc4cccc(N5CCCCC5=O)c4)c4ccccc43)[C@@H]2C)cc1', 'composite z-score', 1.98),
  ('COC(=O)C(CC#Cc1ccc2c(c1)[C@]1(C(=O)N2)[C@H](C(N)=O)[C@H]2C(=O)O[C@H](c3ccccc3)[C@H](c3ccccc3)N2[C@@H]1c1ccccc1OCCO)C(=O)OC', 'composite z-score', 3.13),
  ('O=C(N1CCOCC1)[C@]1(CCS(=O)(=O)c2ccccc2)N=C(c2ccc(OCCCO)cc2)O[C@@H]1c1ccccc1', 'composite z-score', 3.26),
  ('COc1cccc(C)c1NC(=O)O[C@H]1[C@H](OC(=O)Nc2ccccc2-c2ccccc2)[C@@H](OC(=O)Nc2ccccc2-c2ccccc2)[C@@H](OC)O[C@@H]1CO', 'composite z-score', 3.54),
  ('CCCCCN1CC=CC23O[C@@H]4/C=C\CCCOC(=O)C4[C@H]2C(=O)N(CCO)[C@@H]3C1=O (stereo not given in full)', 'composite z-score', 3.42),
  ('C=C(C(=O)CC[C@H](OC(=O)c1ccccc1-c1ccccc1C(=O)O)c1ccc(OCCO)cc1)C(C)C', 'composite z-score', 3.04),
  ('O=C1OCCC/C=C\[C@H]2OC34C=CCN(Cc5ccccc5)C(=O)[C@H]3N(CCO)C(=O)[C@@H]4C12 (stereo not given in full)', 'composite z-score', 2.22),
  ('COCCCNC(=O)[C@@]1(CCC(=O)OC(C)(C)C)N=C(c2ccc(OCCCO)cc2)O[C@H]1c1ccccc1', 'composite z-score', 3.51),
  ('CCOC(=O)C[C@H]1[C@H](OC(=O)Cc2ccc3c(c2)OCO3)[C@@H](NC(=O)CC(C)C)c2cc(OCCCO)ccc2N1C(=O)c1ccc2ccccc2n1', 'composite z-score', 0.452);

---

// values below are reported z-score
assay: P. aeruginosa biofilm formation inhibitors, primary screen, PAO1 strain, BacTiter-Glo luminescence, LB-PBS (AID 1144); settings: 12 h, higher = more signal
Active and inactive are the calls of the source. No rule for the calls is given here.
reported_metric: z-score

INSERT INTO results (molecule, endpoint_value) VALUES
  ('C=C(COC)/C(=C/C[C@@H](OC(=O)c1ccncc1)c1ccccc1OCCO)c1cnc2ccccc2c1', '1.45 (inactive)'),
  ('CC(C)N1CC=CC23O[C@@H]4/C=C\CCCOC(=O)C4[C@H]2C(=O)N(C(C)CO)[C@@H]3C1=O (stereo not given in full)', '-2.11 (inactive)'),
  ('COc1ccc(CCNC(=O)[C@@]2(C)c3ccccc3C(=O)N(Cc3ccc(OC(F)(F)F)cc3)[C@H]2c2ccc(CO)cc2)cc1', '0.175 (inactive)'),
  ('COC(=O)C1(CC(C)C)C=C2C(=C(C)C(=O)C2C)CN1 (stereo not given)', '0.142 (inactive)'),
  ('O=C(NCCN1CCOCC1)[C@@H]1c2ccccc2C(=O)N(CC23CC4CC(CC(C4)C2)C3)[C@H]1c1ccc(CO)cc1', '-0.634 (inactive)'),
  ('COCCOC(=O)N1C(=O)[C@@]2(c3cc(C#CCNC(N)=O)ccc31)[C@H](c1ccc(O)cc1)N1[C@H](c3ccccc3)[C@H](c3ccccc3)OC(=O)[C@H]1[C@@H]2C(=O)N1CCc2cc(OC)c(OC)cc2C1', '0.389 (inactive)'),
  ('CN1C(=O)C2C=CC(C(O)c3cccs3)N(N(c3ccccc3)c3ccccc3)C2C1=O (stereo not given)', '-0.176 (inactive)'),
  ('Cc1ccc(S[C@]2(C(=O)NC(C)C)CC(=O)N(Cc3ccccc3)[C@@H]2c2ccc(CO)cc2I)cc1', '1.2 (inactive)'),
  ('COc1cc(Cc2cc3c(c(-c4ccccc4)n2)[Si](C(C)C)(C(C)C)OC3)cc(OC)c1OC', '-0.546 (inactive)'),
  ('O=C1OCC=C[C@H]2OC34C=CCN(Cn5nnc6ccccc65)C(=O)[C@H]3N(CCO)C(=O)[C@@H]4[C@@H]12 (stereo not given in full)', '1.43 (inactive)');
